system.name: T1, human SIRPA_V2 protein (human, UniProt P78324 31-504)
T1 construct: Expressed on 293α cells from pcDNA3.2 V5-DEST or pFLAG V5-DEST (FLAG-tagged) vectors; also called human SIRPA Variant 2; ECD variant (full-length, amino acids 1 to 504)
assay.comment: cell-based ELISA on 293α cells expressing FLAG-tagged SIRPA_V2; Abs 490 normalized to FLAG tag
attribute.measured: EC50 (read off the curve)

binder	attribute.measured	measured
cF44 (IgG1) (antibody, V domains shown, Human IgG1 constant region; also called cF44 IgG1 type) VH: EVQLVESGGGLVQPGRSLKLSCAASGFTFSNYYMAWVRQAPTKGLEWVTYITTGGGSTYFRDSVKGRFTISRDNAESTLYLQMDSLRSEDTATYYCTAANYGGSYFDYWGQGVMVTVSS VL: DVQMTQSPSNLAASPGESVSINCKASKSISKYLAWYQQKPGKANKLLIYSGSTLQSGTPSRFSGSGSGTDFTLTIRNLEPEDFGLYYCQQHNEYPPTFGAGTKLELK	EC50 (read off the curve)	~0.04 µg/mL

Alright, here's another binder for you.
Ask | Indicate its recorded EC50 (read off the curve); the binder in question is human chimeric anti-SIRPA antibody cF44 (antibody, human IgG4 S228P, kappa, F234A L235A, V domains shown, Human IgG4proFALA heavy chain, human kappa light chain; also called cF44 (IgG4pf); human chimeric antibody F44) VH: EVQLVESGGGLVQPGRSLKLSCAASGFTFSNYYMAWVRQAPTKGLEWVTYITTGGGSTYFRDSVKGRFTISRDNAESTLYLQMDSLRSEDTATYYCTAANYGGSYFDYWGQGVMVTVSS VL: DVQMTQSPSNLAASPGESVSINCKASKSISKYLAWYQQKPGKANKLLIYSGSTLQSGTPSRFSGSGSGTDFTLTIRNLEPEDFGLYYCQQHNEYPPTFGAGTKLELKR
Reply | ~0.05 µg/mL
